System: Mus musculus
Test: Toxicity in C57BL/6 mouse infected with methicillin-resistant Staphylococcus aureus ATCC 33592 assessed as weight loss at 30 mg/kg, ip administered 1 hr post infection
Assay type: organism-based
Parameters: dose 30 mg/kg, route intraperitoneal
Settings: in vivo
ASSAY ENDPOINT: Activity

For the compound `NS(=O)(=O)Nc1ccc(-n2nc(C(F)(F)F)cc2-c2ccc3c(ccc4ccccc43)c2)cc1` , give its reported Activity. > 20%

====

Hi there, I'd appreciate the recorded MIC for every entry that follows.
Tested on: Staphylococcus epidermidis
Assay: Antibacterial activity against Staphylococcus epidermidis ATCC 12228 after 24 hrs by broth microdilution method
Type: functional
Details: ATCC 12228, 24 h
Could you give me the number in µg/mL? Just the number is fine.

Note down MIC recorded for `Cc1ccc(-c2cc(C(F)(F)F)nn2-c2ccc(NS(N)(=O)=O)cc2)cc1` 4

Respond only with MIC recorded for `Cc1ccc(-c2ccc(-c3cc(C(F)(F)F)nn3-c3ccc(NS(N)(=O)=O)cc3)cc2)cc1` 1

Could you please provide reported MIC for `NS(=O)(=O)Nc1ccc(-n2nc(C(F)(F)F)cc2-c2ccc3cc4ccccc4cc3c2)cc1` ? Thanks! 2

Indicate its recorded MIC; the molecule in question is `NS(=O)(=O)Nc1ccc(-n2nc(C(F)(F)F)cc2-c2ccc(-c3ccc(Br)cc3)cc2)cc1` 1

Dear colleague, please send me the reported MIC for `CC1(C)S[C@@H]2[C@H](NC(=O)[C@H](N)c3ccccc3)C(=O)N2[C@H]1C(=O)O` when you can. 16

====

Tested on: Staphylococcus aureus
Assay: Antibacterial activity against Staphylococcus aureus ATCC 12598 after 24 hrs by broth microdilution method
Format: functional
Conditions: ATCC 12598, 24 h
ASSAY ENDPOINT: MIC
A bare number is not enough; add the unit after it.

Answer with the recorded MIC of `NS(=O)(=O)Nc1ccc(-n2nc(C(F)(F)F)cc2-c2ccc(-c3ccc(Br)cc3)cc2)cc1` only. 1 µg/mL

Note down MIC recorded for `CC1(C)S[C@@H]2[C@H](NC(=O)[C@H](N)c3ccccc3)C(=O)N2[C@H]1C(=O)O` 0.25 µg/mL

Look up and state reported MIC for `NS(=O)(=O)Nc1ccc(-n2nc(C(F)(F)F)cc2-c2ccc(-c3ccccc3)cc2)cc1` 1 µg/mL

Using the record for `Cc1ccc(-c2cc(C(F)(F)F)nn2-c2ccc(NS(N)(=O)=O)cc2)cc1` , state its measured MIC. 4 µg/mL

Hello, please tell me recorded MIC for this one: `Cc1ccc(-c2ccc(-c3cc(C(F)(F)F)nn3-c3ccc(NS(N)(=O)=O)cc3)cc2)cc1` 1 µg/mL

====

System: Staphylococcus aureus
Assay: Antibacterial activity against methicillin-resistant Staphylococcus aureus expressing […] subtype VT after 24 hrs by broth microdilution method
Type: functional
ASSAY ENDPOINT: MIC (µg/mL)
I only need the number, in µg/mL, no unit after it.

Fill in reported MIC for this entry: `Cc1ccc(-c2ccc(-c3cc(C(F)(F)F)nn3-c3ccc(NS(N)(=O)=O)cc3)cc2)cc1` 1

Give MIC for the following compound: `Cc1ccc(-c2cc(C(F)(F)F)nn2-c2ccc(NS(N)(=O)=O)cc2)cc1` 4

Return value of MIC for input `NS(=O)(=O)Nc1ccc(-n2nc(C(F)(F)F)cc2-c2ccc(-c3ccccc3)cc2)cc1` , no commentary. 1

Consider the compound `O=C(N[C@H](CO)[C@H](O)c1ccc([N+](=O)[O-])cc1)C(Cl)Cl` . State its measured MIC. 32

Supply measured MIC of `NS(=O)(=O)Nc1ccc(-n2nc(C(F)(F)F)cc2-c2ccc(-c3ccc(Br)cc3)cc2)cc1` in your reply. 1

Respond only with MIC recorded for `NS(=O)(=O)Nc1ccc(-n2nc(C(F)(F)F)cc2-c2ccc3cc4ccccc4cc3c2)cc1` 2

Reference for the values: ChEMBL document CHEMBL2057145
